target: prostacyclin receptors (IP receptors) of human thrombocyte membranes (Homo sapiens); construct: 300-1000 μg/ml human thrombocyte membranes per charge; tissue Maco Pharma, Langen (buffy coats); experiment: Binding to prostacyclin receptors (IP receptors) of human thrombocyte membranes (3H-Iloprost displacement); details: 3 nM 3H-Iloprost, 60 min, room temperature
Sequence (P43119 whole entry): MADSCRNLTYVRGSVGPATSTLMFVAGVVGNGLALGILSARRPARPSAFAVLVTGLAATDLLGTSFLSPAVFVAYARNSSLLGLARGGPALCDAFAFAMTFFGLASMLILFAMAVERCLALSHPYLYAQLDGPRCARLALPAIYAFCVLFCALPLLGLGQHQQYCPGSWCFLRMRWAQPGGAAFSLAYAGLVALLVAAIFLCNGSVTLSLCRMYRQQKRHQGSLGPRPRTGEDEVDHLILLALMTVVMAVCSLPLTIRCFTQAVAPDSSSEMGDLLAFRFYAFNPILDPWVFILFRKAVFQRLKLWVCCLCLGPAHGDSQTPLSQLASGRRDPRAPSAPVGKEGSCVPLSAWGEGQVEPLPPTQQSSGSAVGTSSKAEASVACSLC
Property: IC50; scope: individual compounds
parameter measured: IC50

>  <compound>
CCc1ccc(-c2c(-c3ccccc3)oc3ncnc(O[C@@H]4CCCN(CCCC(=O)O)C4)c23)cc1F (single isomer, unassigned)

>  <experimental result>
83 nM

$$$$
>  <compound>
COc1ccc(-c2c(-c3ccccc3)oc3ncnc(Oc4ccc(CCC(=O)O)cc4)c23)cc1

>  <experimental result>
15 nM

$$$$
>  <compound>
COc1ccc(-c2c(-c3ccccc3)oc3ncnc(O[C@H]4CCC[C@@H](OCC(=O)O)C4)c23)cc1 (single isomer, unassigned) [Example 68]

>  <experimental result>
34 nM

$$$$
>  <compound>
COc1ccc(-c2c(-c3ccccc3)oc3ncnc(O[C@H]4CC[C@H](OCC(=O)O)C4)c23)cc1

>  <experimental result>
37 nM

$$$$
>  <compound>
COc1ccc(-c2c(-c3ccccc3)oc3ncnc(O[C@@H]4CCCN(CCc5nnn[nH]5)C4)c23)cc1

>  <experimental result>
34 nM

$$$$
>  <compound>
COc1ccc(-c2c(-c3ccccc3)oc3ncnc(N[C@@H]4CC[C@@H](OCC(=O)O)C4)c23)cc1

>  <experimental result>
6 nM

$$$$
>  <compound>
COc1ccc(-c2c(-c3ccccc3)oc3ncnc(O[C@H]4CCC[C@@H](OCC(=O)O)C4)c23)cc1 (single isomer, unassigned) [Example 67]

>  <experimental result>
388 nM

$$$$
>  <compound>
COc1ccc(-c2c(-c3ccccc3)oc3ncnc(N[C@H]4CC[C@@H](OCC(=O)O)C4)c23)cc1

>  <experimental result>
71 nM

$$$$
>  <compound>
COC(=O)COc1cccc(Nc2ncnc3oc(-c4ccccc4)c(-c4ccc(OC)cc4)c23)c1

>  <experimental result>
43 nM

$$$$
>  <compound>
COc1ccc(-c2c(-c3ccccc3)oc3ncnc(O[C@H]4CCC[C@H](OCC(=O)O)C4)c23)cc1 (racemic)

>  <experimental result>
8 nM

$$$$
>  <compound>
O=C(O)CO[C@@H]1CCC[C@H](Oc2ncnc3oc(-c4ccccc4)c(-c4ccc(Cl)cc4)c23)C1

>  <experimental result>
293 nM

$$$$
>  <compound>
COc1ccc(-c2c(-c3ccccc3)oc3ncnc(Nc4cccc(/C=C/C(=O)O)c4)c23)cc1

>  <experimental result>
11 nM

$$$$
>  <compound>
O=C(O)COc1cccc(Nc2ncnc3oc(-c4ccccc4)c(-c4ccc(F)cc4)c23)c1

>  <experimental result>
237 nM

$$$$
>  <compound>
CCc1ccc(-c2c(-c3ccccc3)oc3ncnc(O[C@@H]4CCCN(CCCC(=O)O)C4)c23)cc1

>  <experimental result>
28 nM

$$$$
>  <compound>
COc1ccc(-c2c(-c3ccccc3)oc3ncnc(Nc4cccc(OCC(=O)O)c4)c23)cc1

>  <experimental result>
18 nM

$$$$
>  <compound>
COc1ccc(-c2c(-c3ccccc3)oc3ncnc(OC4CCCN(CCCC(=O)O)C4)c23)cc1 (stereo not drawn)

>  <experimental result>
152 nM

$$$$
>  <compound>
CCc1ccc(-c2c(-c3ccccc3)oc3ncnc(O[C@@H]4C=C[C@@H](OCC(=O)O)C4)c23)cc1

>  <experimental result>
13 nM

$$$$
>  <compound>
CCc1ccc(-c2c(-c3ccccc3)oc3ncnc(N[C@H]4CCC[C@H](OCC(=O)O)C4)c23)cc1 (racemic)

>  <experimental result>
20 nM

$$$$

----------
biological target: prostacyclin receptors (IP receptors) of human thrombocyte membranes (Homo sapiens); construct: 300-1000 μg/ml human thrombocyte membranes per charge; tissue Maco Pharma, Langen (buffy coats); host or cells: human thrombocyte (platelet) membranes prepared from human blood buffy coats; experiment: Binding to prostacyclin receptors (IP receptors) of human thrombocyte membranes (3H-Iloprost displacement); conditions: 3 nM 3H-Iloprost, 60 min, room temperature
parameter measured: IC50 (µM)

>  <molecule>
COc1ccc(-c2c(-c3ccccc3)oc3ncnc(N[C@H]4CCC[C@H](OCC(=O)O)C4)c23)cc1 [Example 87]

>  <experimental result>
0.017

$$$$
>  <molecule>
CCc1ccc(-c2c(-c3ccccc3F)oc3ncnc(O[C@@H]4CCCN(CCCC(=O)O)C4)c23)cc1 [Example 181]

>  <experimental result>
0.027

$$$$
>  <molecule>
COC(=O)CCCN1CCC[C@@H](Oc2ncnc3oc(-c4ccccc4F)c(-c4ccc(OC)cc4)c23)C1 [Example 183]

>  <experimental result>
0.218

$$$$
>  <molecule>
CCc1ccc(-c2c(-c3ccccc3)oc3ncnc(N[C@@H]4C=C[C@@H](OCC(=O)O)C4)c23)cc1 [Example 176]

>  <experimental result>
0.024

$$$$
